System: NB-4
test_name: Induction of cell differentiation in human NB4 cells assessed as induction of induction of cell surface marker CD14 expression at 1 nM after 48 hrs
Assay type: functional, cell-based
condition_parameters: tested as the 2H-labelled form
The source made the active and inactive calls. The rule behind the calls is not given here.
readout_label: Activity

C=C1/C(=C\C=C2/CCC[C@]3(C)[C@@H]([C@@H](CC#CC(O)(C(F)(F)F)C(F)(F)F)CCCC(C)(C)O)CC[C@@H]23)C[C@@H](O)C[C@@H]1F Active
C=C1/C(=C\C=C2/CCC[C@]3(C)[C@@H]([C@H](C/C=C\C(O)(C(F)(F)F)C(F)(F)F)CCCC(C)(C)O)CC[C@@H]23)C[C@@H](O)C[C@@H]1O Active
CC(C)(O)CCC[C@@H](CC#CC(O)(C(F)(F)F)C(F)(F)F)[C@H]1CC[C@H]2/C(=C/C=C3C[C@@H](O)C[C@H](O)C3)CCC[C@]12C Active
